The reported numbers originate from the supplement of paper PMC6555819.

Test system: RARb homodimer (NR concentration 270 nM)
Experiment: PBM binding z-score (relative to random genomic background probes); higher = stronger binding; sequences stand for … in GC…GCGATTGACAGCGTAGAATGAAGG
Recorded Metric: PBM binding z-score
Give bare numbers.

Before answering, review these 6 worked examples.
1) CGAATTAGGTCATTGACAGGACAGTGAATAGTAA: 2.68
2) TCATATAGGTAAAACGTGAAAGTCGGTGTGGTAA: -0.166
3) TTACCAAGGTGAGCTGAGGTCGCTGATCCAACTC: 1.76
4) ATAATGAGGTTATACGTAGATCAGGGAAGAAAGT: 1.21
5) TAGCCTAGGTCATGGGCCAGCATACCACGCGAAC: 2.95
6) TCTCGGAGGACACGAAAGGTCAGAGCCCGACATC: 4.82

# per-item lookup of PBM binding z-score; items listed below
1. GCGACTGGGGCATCAGCAGGTTACCTTAACTTAA
2. ATCTCTAGGTAACCAAGTTCAGTGGATGCCGAAC
3. CGAACTAGGTCAAGGACAGTGACTCTCCGCACGC
4. CCTGCTAGCTCATGGTCAGCTAATCTACAGTATG
5. AGGCAAAGTTCACTAGGTAACGTAAGATTCAGCT
6. CCAGACAGTTGAAAGGTAACTCAGTCTGGTACGC

1: 0.872; 2: 1.38; 3: 3.26; 4: -0.424; 5: 3.64; 6: 0.351

----------
System: RARg:RXRa (NR concentration 270 nM, RXRa partner concentration 90 nM)
Test: PBM binding z-score (relative to random genomic background probes); higher = stronger binding; sequences stand for … in GC…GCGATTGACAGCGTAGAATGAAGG
We'd kindly ask you to apply these PBM binding z-score classes: bin 1: < 0.3; bin 2: ≥ 0.3 and < 4; bin 3: ≥ 4

Consider the following illustrative entries.
1) AATACTGGGTCATCGTAGGCCAGAGTACGCACAG: bin 2
2) CCTCGGAGGACAACAGGAGGTCTGAGCTGCCAGA: bin 1
3) CATACAGGGTCAGCTAGGCCAGGGTAGGGACGGC: bin 3
4) CAAACTTGGTCAAGAGGTCAAAGTCCGCTTCCCG: bin 3
5) TCACCAAGGTGAGCTGAGGTCGTTGATCCAACTC: bin 2
6) CCGACTGGGGCATAAGGTTAACATAAGCCAGCCC: bin 2
7) ACTATTAGTTGAGACGAGGGGAACCGATAGGTTG: bin 1
8) CAGCCTATGTCAGGGCCAGTATAGGAGGAACGTT: bin 1

Classify this sequence: CAAGACAGGTGAGAAGGTAACTCAGCCTCGATTA bin 2

# bin lookup: classify GCTATTAGTTCAAAGGGCAACCGAATGATTCTCG by its PBM binding z-score bin 2

----------
Provide the reported PBM binding z-score of each item.
System: VDR homodimer (NR concentration 270 nM)
Assay: PBM binding z-score (relative to random genomic background probes); higher = stronger binding; sequences stand for … in GC…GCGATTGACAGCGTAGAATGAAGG
One number for each entry.

Sample answers from the record:
1. AGTCAGAGTTCACTAGGTAACGTAAGATTCAGCT: 5.65
2. ACAGACAGGTGCGTGAAGGTAACTCAGCTGGACG: -0.569
3. CCTTACGGATCACTGACAGGTTATAGCATTTGGA: 0.612
4. TCTTGTAGATCAGCCGGTTAAGAAAGCTGGCCAA: -0.659

Take each entry in turn and give its PBM binding z-score.
1. CCTTACGGGACACGAGGTTATAGCACGACGAGCG
2. ACTATTAGTTGACTTAGGGCAACAGATACGACGC

[0.544, 0.162]

Give measured PBM binding z-score for every item shown.
1. GTACCAAGGCGAATAGGTCGTTGATGAGTAGGCG
2. TCTGCTAGGTCAGTTCGTCAGCTAACGAGCTGCC
3. GCGACTGGGGCATCAGCAGGTTACCATGACTTAA
4. TCAGACAGGTGAATGTAACTCAGGTACGCAGTCG
5. CGTCCAAGGGCAGAGAGGTCAGTGAATGCCGAGT
6. GCTAGTAGGCCATTTGGGTCACTCAATGACGGGC
7. CCTACTGGGCCATCAGGTCATTGAGATCAACGTT
8. CCGACTGGCGCAGAAAGGTTACCATACCATCCGG

1. -0.0798
2. 0.389
3. -0.549
4. 0.463
5. 3.19
6. 0.26
7. 1.89
8. -0.331

Could you tell me PBM binding z-score for each of these sequences? They are listed below.
1. TCATATAGGTAAATGCTAGGTGAAAGCCCGATCT
2. GCCTATAGGTAATACAAGGTGAAAGTCCGATTGT
3. CAAACTAGGTCACAGAGGTCAAAGTCCGTGCGTA
4. GCTAGTTGGTCAGTAAAAGGTCATACACCGGTCG
5. TCATATAGGTACACAGGTGAAAGTCCGTAAGTTA
6. CCTACTGGGCCAAAAAGGTCAATGATGCCGATAA
7. TGTCAAAGTTCAAAGGGAACGTAAGTATCCACAC
8. TCTTGTAGATCAATAGAGGTTAAGAACGTGCGCT

1. -0.161
2. -0.376
3. 7.24
4. 2.09
5. 1.07
6. 0.956
7. 4.05
8. 0.37

----------
Tested on: RXRa DBDmut IVT, anti-RXR (DBD mutation: RXRa K156A/R161A, NR concentration 90 nM)
Assay: PBM binding z-score (relative to random genomic background probes); higher = stronger binding; sequences stand for … in GC…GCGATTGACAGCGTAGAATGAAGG
Lab note: anything with PBM binding z-score at or over 0.02 counts as TRUE; the rest go in FALSE.

1. GCACACAGGTGAAACGCAGGTAACTCAGGGTGGC: FALSE
2. TCAGACAGGTGAAGGTAACTGAGGTACGCAGTCG: TRUE
3. TCTAGCAGGCCAGAGGCTCACTCAAGAGGTACGG: FALSE
4. CATCCTAGGTCAGGGCCAGTATAGGAGGAACGTT: FALSE
5. CCAGACAGGTGAGACGGTAACTCAGCCTCGATTA: TRUE

Entry GCTCGGAGGACAAGGTCAGAACTTTGTCCGTAGA : is its PBM binding z-score no less than 0.02? TRUE

Would you say ATCGAAAGGTAGAAGGTGAGTATACCCACCCGAA shows PBM binding z-score at minimum 0.02? FALSE

Determine whether measured PBM binding z-score meets or exceeds 0.02 for TCTGTTAGGTCAGTTGGTCAGCTAACGAGCTGCC TRUE

Is it the case that AGTAGTTGGTCAGCTGAGGTCACACACAATTCGG has PBM binding z-score reaching or exceeding 0.02? TRUE

Item TCAAGTAGGTTAGTCGGGGCATTCAGCCAACATA with PBM binding z-score of 0.02 or above? TRUE

Textbook exercise: given the entry ACAGACAGGTGAGTGAAAGTAACTCAGCTGGACG , state whether its PBM binding z-score is greater than or equal to 0.02. FALSE

# check: PBM binding z-score of TCTAGTTGGTCACGGATGTCACACACGACGGGTA is greater than or equal to 0.02 TRUE

----------
Tested on: PXR:RXRa (NR concentration 270 nM, RXRa partner concentration 90 nM)
Test: PBM binding z-score (relative to random genomic background probes); higher = stronger binding; sequences stand for … in GC…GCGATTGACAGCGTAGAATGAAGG
Recorded Metric: PBM binding z-score
Answers are plain numbers.

1) CCTACTGTGCCACGAAAGGTCATTGATTCAGTGA: 5.32
2) AGAACGAGGGCAATGCGTTGATAGCACGGGTGGC: 0.219

For the 3 sequences below, give their PBM binding z-score values.
1. TCGAGTAGGTTAGTCCGGGCATTCAGCCAACATA
2. GGAAGGAGGGCATTCGAGTTGATAGCATGGCGAT
3. TCTATTAGTTGATTAGGGCACCCGAAACAGCGGA

[-0.337, 3.38, 0.419]

# batch size: 5; output PBM binding z-score per entry
1. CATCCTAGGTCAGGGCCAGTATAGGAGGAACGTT
2. CCTCACGGGTCACGAGGTTATAGCACGACGAGCG
3. TTACCAAGGTGAAAGGGCGTTGATGCACGCCTTG
4. GGAACTAGGGCATTCGAGTTGATAGCATGGCGAT
5. TTACCAAGGTGAAAGGTCGTTAATGCACGCCTTG

[0.842, 4.4, 1.14, 1.44, 3.35]

Record PBM binding z-score per entry; entries follow.
1. GCTCGGAGGACAAGCTCAGAGCTTTGTCCGTAGA
2. CGTCCAACGTCAAAGGTCAGTGAAGAGATGACGG

1: -0.742; 2: 3.58
